- method summary: self-splicing fitness, log relative to wild type (ln ratio); higher = more splicing; Tetrahymena group I intron in knt gene, E. coli kanamycin selection, DiMSum; sequences stand for … in CUCUCU…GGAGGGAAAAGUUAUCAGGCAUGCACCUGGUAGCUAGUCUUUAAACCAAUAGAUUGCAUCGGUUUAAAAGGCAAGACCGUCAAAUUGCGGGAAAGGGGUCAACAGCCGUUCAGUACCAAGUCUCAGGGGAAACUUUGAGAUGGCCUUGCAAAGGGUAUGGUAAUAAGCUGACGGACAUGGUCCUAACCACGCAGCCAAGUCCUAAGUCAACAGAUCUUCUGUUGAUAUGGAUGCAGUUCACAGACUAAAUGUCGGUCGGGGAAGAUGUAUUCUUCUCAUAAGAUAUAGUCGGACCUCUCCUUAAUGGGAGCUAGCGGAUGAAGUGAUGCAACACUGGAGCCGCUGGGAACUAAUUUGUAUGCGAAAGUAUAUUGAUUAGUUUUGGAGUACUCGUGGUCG;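 also: selection with 25 µg/mL kanamycin versus none on LB agar overnight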
- reported conditions: 37 °C
Provide the reported self-splicing fitness (ln) of each item.
Just the number, please.

Ask: Which self-splicing fitness (ln) reading was recorded for the sequence "CCAGAGCAAUAUUACGUAUA" ?
Reply: -2.35

Ask: Entry "GUAGAGCAAUAUUACGGCCA" please
Reply: -0.417

Ask: Entry "UUAUAGCAAUAUUACGGUGU" please
Reply: -2.23

Ask: Entry "GAGAAGCAAUAUUACGCAUC" please
Reply: -2.6

Ask: Entry "CCGGAGCAAUAUUACGCAUU" please
Reply: -1.81

Ask: Entry "UUAAAGCAAUAUUACGAUCA" please
Reply: 0.412

Ask: Entry "GGAUAGCAAUAUUACGCGAA" please
Reply: -1.41

Ask: Entry "AAUAAGCAAUAUUACGUCAG" please
Reply: -1.82

====

- method summary: self-splicing fitness, log relative to wild type (ln ratio); higher = more splicing; Tetrahymena group I intron in knt gene, E. coli kanamycin selection, DiMSum; sequences stand for … in CUCUCU…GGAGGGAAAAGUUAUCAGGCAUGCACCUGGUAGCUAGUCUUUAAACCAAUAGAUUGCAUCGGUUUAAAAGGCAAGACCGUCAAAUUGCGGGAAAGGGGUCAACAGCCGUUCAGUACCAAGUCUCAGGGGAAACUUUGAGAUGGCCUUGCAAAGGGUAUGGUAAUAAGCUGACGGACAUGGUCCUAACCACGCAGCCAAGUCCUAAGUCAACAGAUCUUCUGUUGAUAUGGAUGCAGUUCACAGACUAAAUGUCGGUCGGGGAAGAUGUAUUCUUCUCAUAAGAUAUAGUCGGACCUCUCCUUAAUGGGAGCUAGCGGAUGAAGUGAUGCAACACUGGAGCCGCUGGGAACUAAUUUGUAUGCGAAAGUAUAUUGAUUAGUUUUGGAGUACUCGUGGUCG
- reported conditions: 37 °C
Quick rule: self-splicing fitness (ln) of at least -2 means true (1), below that means false (0).

Ask: Dear colleague, could you confirm whether "GGACAGCAAUAUUACGUGGA" has self-splicing fitness (ln) at or above -2?
Reply: true (1)

Ask: Entry "CGCAAGCAAUAUUACGCACC" please
Reply: true (1)

Ask: Entry "GUGGAGCAAUAUUACGUUCG" please
Reply: true (1)

Ask: Entry "UAGGAGCAAUAUUACGGCAG" please
Reply: true (1)

Ask: Entry "GUUCAGCAAUAUUACGAUGC" please
Reply: true (1)

Ask: Entry "AGUCAGCAAUAUUACGUGUU" please
Reply: true (1)

Ask: Entry "AAACAGCAAUAUUACGGAUA" please
Reply: true (1)

Ask: Entry "UUGCAGCAAUAUUACGCAAG" please
Reply: false (0)

Ask: Entry "GACCAGCAAUAUUACGCUCA" please
Reply: true (1)

Ask: Entry "CCCUAGCAAUAUUACGUCCA" please
Reply: false (0)

Ask: Entry "AUACAGCAAUAUUACGGAAA" please
Reply: false (0)

Ask: Entry "CACAAGCAAUAUUACGUUUG" please
Reply: false (0)

Ask: Entry "GUAAAGCAAUAUUACGUGGG" please
Reply: false (0)

Ask: Entry "AUAUAGCAAUAUUACGGCCG" please
Reply: true (1)

Ask: Entry "UGAGAGCAAUAUUACGUGGA" please
Reply: false (0)

Ask: Entry "UAUCAGCAAUAUUACGCCGA" please
Reply: true (1)

Numbers sourced from the supplement of paper PMC7877785.
